System: 845751-090-R-J2-PDC tumor spheroid viability;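 note: spheroids exposed to compounds for 7 days before readout; CTG3D luminescence normalised so that 100% = DMSO vehicle control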
testDescription: Anticancer human tumor 845751-090-R-J2-PDC patient-derived head and neck squamous carcinoma cell line growth inhibition [IpAb]
assaySetup: second compound 0.316 µM; first compound 0.3 µM; hits give low values; spheroids with HUVEC and MSC
measurementName: viability, T/C (%)
Report the figure in % without appending any unit label.

In the examples that follow, each entry is paired with its recorded viability, T/C.
Cn1cnc2c(F)c(Nc3ccc(Br)cc3Cl)c(C(=O)NOCCO)cc21 + CCN1CCN(Cc2ccc(Nc3ncc(F)c(-c4cc(F)c5nc(C)n(C(C)C)c5c4)n3)nc2)CC1 ... 128
CC(=O)c1c(C)c2cnc(Nc3ccc(N4CCNCC4)cn3)nc2n(C2CCCC2)c1=O + CCN1CCN(Cc2ccc(Nc3ncc(F)c(-c4cc(F)c5nc(C)n(C(C)C)c5c4)n3)nc2)CC1 ... 50.6

Kindly review the next molecule as well.
stdin: Param readout= viability, T/C; system= 845751-090-R-J2-PDC tumor spheroid viability; entry= Cn1cnc2c(F)c(Nc3ccc(Br)cc3Cl)c(C(=O)NOCCO)cc21 + CC(C)NCC(C(=O)N1CCN(c2ncnc3c2C(C)CC3O)CC1)c1ccc(Cl)cc1 ; returns value.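 Note: spheroids exposed to compounds for 7 days before readout; CTG3D luminescence normalised so that 100% = DMSO vehicle control.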
stdout: 11.2

These entries and their values trace back to PubChem BioAssay AID2060333.
